method_notes: in vivo
setup_conditions: mouse, in vivo; intravenous, mice; method of LitchfieldWilcoxon using 10 mice/dose (footnote a)
metric: LD50 at 168 h (mg/kg)
Supply the numeric figure in mg/kg, leaving out any unit text.

For the compound CCCn1c(=O)c2c(ncn2CCCCC(C)O)n(C)c1=O (stereo not shown) , what LD50 at 168 h is on record? 123

###

System: stress-induced gastric ulcer in rats
method_notes: Protective effect on gastric ulcer induced by restraint plus water-immersion stress in rats
Format: in vivo, male Sprague-Dawley rats
setup_conditions: Rattus norvegicus, stress-induced ulcer, 10 mg/kg po, series with control 19.7 ± 2.9 mm
Experimental: 1.1 Protective Effect on Gastric Ulcer Induced by Restraint Plus Water-Immersion Stress in Rats Male Sprague-Dawley rats weighing 250-300 g were used in groups of 5-34. The animals were given the compounds by the oral route after fasting overnight. […] The longest axis of each erosion induced on the glandular section of the stomach was measured, and the sum of the lengths was defined as an ulcer index.
Task for the reader: assign each of the following compounds its reported inhibition in vivo at 10 mg/kg.
Supply the numeric figure in %, leaving out any unit text.

For the compound CCCCn1c(=O)c2c(ncn2CCCCC(O)CO)n(CC)c1=O (stereo not drawn) , what inhibition in vivo at 10 mg/kg is on record? 69.6

And for CCCn1c(=O)c2c(ncn2CCCCC(O)CO)n(CC)c1=O (stereo not drawn) ? 86.3

And for C=CCn1c(=O)c2c(ncn2CCCCC(C)O)n(C)c1=O (stereo not drawn) ? 22.3

And for CC(=O)Cn1cnc2c1c(=O)n(CCCCC(C)O)c(=O)n2C (stereo not drawn) ? 19.8

And for CCCn1c(=O)c2c(ncn2CCCCC(C)O)n(C)c1=O (stereo not drawn) ? 88.9

And for CC(=O)CCCCn1c(=O)c2c(ncn2CC(C)O)n(C)c1=O (stereo not drawn) ? 65

And for `CCn1c(=O)c2c(ncn2CCCCC(C)=O)n(C)c1=O` ? 59

And for `CC(=O)CCCCn1cnc2c1c(=O)n(CC(C)=O)c(=O)n2C` ? 47.7

And for CC(=O)CCCCn1c(=O)c2c(ncn2C)n(C)c1=O [Compound 25, reference compound] ? 12.7

###

Test system: stress-induced gastric ulcer in rats
method_notes: Protective effect on gastric ulcer induced by restraint plus water-immersion stress in rats
Format: in vivo, male Sprague-Dawley rats
setup_conditions: Rattus norvegicus, stress-induced ulcer, 10 mg/kg po, series with control 26.2 ± 1.6 mm
metric: inhibition in vivo at 10 mg/kg (%)
Supply the numeric figure in %, leaving out any unit text.

For the compound CCCCCn1c(=O)c2c(ncn2CCCCC(O)CO)n(CC)c1=O (stereo not shown) , what inhibition in vivo at 10 mg/kg is on record? 64.7

And for CCn1c(=O)n(CC(C)C)c(=O)c2c1ncn2CCCCC(O)CO (stereo not shown) ? 72.9

And for CCn1c(=O)n(C(C)C)c(=O)c2c1ncn2CCCCC(O)CO (stereo not shown) ? 56

And for CCCn1c(=O)n(CCCCC(C)=O)c(=O)c2c1ncn2CCCCC(O)CO (stereo not shown) ? 22.9

And for CCCCn1c(=O)c2c(ncn2CCCCC(C)O)n(C)c1=O (stereo not shown) ? 59.4

And for C=CCn1c(=O)c2c(ncn2CCCCC(O)CO)n(CC)c1=O (stereo not shown) ? 73.2

And for CCCn1cnc2c1c(=O)n(CCCCC(O)CO)c(=O)n2CC (stereo not shown) ? 60.2

And for C=CCn1cnc2c1c(=O)n(CCCCC(C)O)c(=O)n2C (stereo not shown) ? 48.9

And for CCCCn1c(=O)c2c(ncn2CCCCC(O)CO)n(C)c1=O (stereo not shown) ? 82.8

And for CC(=O)CCCCn1c(=O)c2c(ncn2CCCCC(O)CO)n(C)c1=O (stereo not shown) ? 47.4
